TESTED TARGET: SARS-COV-2 Wuhan Reference RBD (SARS-CoV-2, UniProt P0DTC2 319-541)
TEST NAME: ELISA, RBD coated
MEASURED PARAMETER: EC50 (nM)
All answers are understood in nM, so give the number only.

Example results:
PP911 MBP-5HVZ-S2b-F7-H6 (VHH, Form: Dimer) VHH: QVQLVESGGGLVQPGGSLRLSCAASGSTLSNNAMHWFRQAPGKAREFVAAIGSSDSTDYKDSVKGRFTISRDNAKNTVYLQMNSLKPEDTAVYYCTALLDSGPGEYNYWGQGTQVTVSS	2.36
PP1106 MBP-5HVZ-PAPA-RN-21-H6 (VHH, Form: Dimer) VHH: QVQLVESGGGLVQPGGSLRLSCAASGLQTSDNAMHWFRQAPGKNRELVAGLTSGTSRNYGDSVKGRFTISRDNAKNTVYLQMNSLKPEDTAVYYCAAFPDVGDASSIGFVYWGQGTQVTVSS	2.52
PP1096 MBP-5HVZ-PAPA-RN-3-H6 (VHH) VHH: QVQLVESGGGLVQPGGSLRLSCAASGFEFTYRAVHWFRQAPGKGREWVAGVVSGGSTYYADSVKGRFTISRDNAKNTVYLQMNSLKPEDTAVYYCNAGPQAEEDTYDYWGQGTQVTVSS	1.47
PP935 MBP-5HVZ-S3b-E11-H6 (VHH, Form: Dimer) VHH: QVQLVESGGGLVQPGGSLRLSCAASGDIYSQSAMAWYRQAPGKEREFVAAITTTGSRSYKDSVKGRFTISRDNAKNTVYLQMNSLKPEDTAVYYCAAFAVRSSSVSDAYDYWGQGTQVTVSS	0.47
PP1103 MBP-5HVZ-PAPA-RN-18-H6 (VHH, Form: Dimer) VHH: QVQLVESGGGLVQPGGSLRLSCAASGYYFQIVAMHWYRQAPGKEREGVAGITSTGSTYYGDSVKGRFTISRDNAKNTVYLQMNSLKPEDTAVYYCNAVSTDAQGAAEYWGQGTQVTVSS	2.4

Task: What measured EC50 goes with PP933 MBP-5HVZ-R5e-C1-H6 (VHH, Form: Dimer) VHH: QVQLVESGGGLVQPGGSLRLSCAASGSIPYVQAMSWFRQAPGKGREGVASIGWGGGTYYADSVKGRFTISRDNAKNTVYLQMNSLKPEDTAVYYCAAKFRENFSFYDYWGQGTQVTVSS ?
Output: 4.9

Task: Cool, now PP1176 MBP-5HVZ-PAPA-R2a-F3-H6 (VHH, Form: Dimer) VHH: QVQLVESGGGLVQPGGSLRLSCAASGSITSINWMHWFRQAPGKDREGVASISQTGRGSYADSVKGRFTISRDNAKNTVYLQMNSLKPEDTAVYYCAAASRTGTPYNYWGQGTQVTVSS
Output: 0.29

Task: Next up: PP1145 MBP-5HVZ-PAPA-R2d-A6-H6 (VHH, Form: Dimer) VHH: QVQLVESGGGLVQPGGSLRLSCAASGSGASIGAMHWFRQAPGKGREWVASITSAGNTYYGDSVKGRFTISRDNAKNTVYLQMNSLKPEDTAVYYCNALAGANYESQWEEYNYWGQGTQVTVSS
Output: 1.33

Task: Next up: PP1094 MBP-5HVZ-PAPA-RN-1-H6 (VHH) VHH: QVQLVESGGGLVQPGGSLRLSCAASGYIFEGGPTAWFRQAPGKGREFVAAITTSGETSYAYSVKGRFTISRDNAKNTVYLQMNSLKPEDTAVYYCNATDRDETGYDYWGQGTQVTVSS
Output: 0.96

Task: Also need PP1115 MBP-5HVZ-PAPA-RN-31-H6 (VHH, Form: Dimer) VHH: QVQLVESGGGLVQPGGSLRLSCAASGSTGSDYAMHWFRQAPGKDREWVAGISSYGSDSYGDSVKGRFTISRDNAKNTVYLQMNSLKPEDTAVYYCAALQASAGAGYYYDYWGQGTQVTVSS , thanks.
Output: 4.9
